# reported IC50; entries follow
tgt: isolated guinea pig pulmonary artery (Cavia porcellus)
Sequence (O70526 whole entry): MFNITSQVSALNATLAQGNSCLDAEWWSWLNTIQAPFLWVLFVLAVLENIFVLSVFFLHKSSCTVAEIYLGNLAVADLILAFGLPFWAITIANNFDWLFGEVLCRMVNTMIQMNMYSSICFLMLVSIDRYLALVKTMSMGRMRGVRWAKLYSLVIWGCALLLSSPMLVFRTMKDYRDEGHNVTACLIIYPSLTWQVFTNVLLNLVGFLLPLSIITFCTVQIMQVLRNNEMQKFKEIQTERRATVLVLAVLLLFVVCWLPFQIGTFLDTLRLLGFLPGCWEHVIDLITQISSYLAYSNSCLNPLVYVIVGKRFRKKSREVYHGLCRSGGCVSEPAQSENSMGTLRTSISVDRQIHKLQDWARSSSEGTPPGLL
test: bradykinin-antagonistic action on the isolated guinea pig pulmonary artery (inhibition of bradykinin-induced contraction)
Type: cell-based
conditionDetails: contraction by 2×10^-7 mol/l bradykinin; peptides 5×10^-8 -1×10^-5 mol/l for 10 minutes; calculated from dose-effect plots; unit inferred
From the text: The peptides according to the invention have, singly or in combination, a bradykinin-antagonistic action which can be tested in various models (see Handbook of Exp. Pharmacol. Vol. 25, Springer Verlag, 1970, pages 53-55), for example on the isolated rat uterus, on the guinea pig ileum or on the isolated guinea pig pulmonary artery. […]
Just the number in nM, nothing appended.

substance="Fmoc-D-Aoc-Arg -Arg-Pro-Hyp-Gly-Thi-Ser-D-Tic-Oic-Arg-OH [Example 7]" quantity=IC50 outputunit=nM resultvalue=22

The reported IC50 of the substance Fmoc-(4-aminocyclohexylcarbonyl)-D-Arg-Arg-Pro-Hyp-Gly-Thi-Ser-D-Tic-Oic-Arg-OH [Example 15] was 25

For record Fmoc-Aoc-D-Arg-Arg-Pro-Hyp-Gly-Thia-Ser-D-Tic-Oic-Arg-OH [Example 2] the listed IC50 is 8.5
